Study system: canine FcRn/B2M protein complex (canine FcRn ECD with C-terminal poly-His tag and canine Beta-2-Microglobulin) (canine)
Measurement notes: SPR Biacore 8K, pH 6.0, 25 C; Fc captured by SASA tag on BSA chip, FcRn/B2M 400 nM as analyte
Property: kon; scope: individual binders
The reply should be a number in M⁻¹ s⁻¹, with the unit left off.

| Binder | Unit symbol | kon |
| --- | --- | --- |
| variant canine IgG-B Fc polypeptide Y0Y (Leu24Tyr, Asn208Tyr) (protein, not shown: small tags and cut ends) CPAPEMLGGPSVFIFPPKPKDTLYIARTPEVTCVVVDLDPEDPEVQISWFVDGKQMQTAKTQPREEQFNGTYRVVSVLPIGHQDWLKGKQFTCKVNNKALPSPIERTISKARGQAHQPSVYVLPPSREELSKNTVSLTCLIKDFFPPDIDVEWQSNGQQEPESKYRTTPPQLDEDGSYFLYSKLSVDKSRWQRGDTFICAVMHEALHYHYTQESLSHSPGK | M⁻¹ s⁻¹ | 286000 |

Turning now to a further binder:
Request: Fill blank: measured kon of the binder variant canine IgG-B Fc polypeptide 0YF (Gln83Tyr, Asn208Phe) (protein, not shown: small tags and cut ends) CPAPEMLGGPSVFIFPPKPKDTLLIARTPEVTCVVVDLDPEDPEVQISWFVDGKQMQTAKTQPREEQFNGTYRVVSVLPIGHYDWLKGKQFTCKVNNKALPSPIERTISKARGQAHQPSVYVLPPSREELSKNTVSLTCLIKDFFPPDIDVEWQSNGQQEPESKYRTTPPQLDEDGSYFLYSKLSVDKSRWQRGDTFICAVMHEALHFHYTQESLSHSPGK is ____.
Response: 380000
